Listed here: items and their measured MIC.
system: Klebsiella pneumoniae; experiment: Antibacterial activity against Klebsiella pneumoniae by disc diffusion method; format: functional; settings: Klebsiella pneumoniae

| compound | MIC |
| --- | --- |
| Nn1c(SCC(=O)c2ccccc2)nc2sc3c(c2c1=O)CCCC3 | > 100 µg/mL |
| Nn1c(SCC(=O)c2cc3ccccc3oc2=O)nc2sc3c(c2c1=O)CCCC3 | < 6.25 µg/mL |
| O=c1c2c3c(sc2nc2sc(Cc4ccccc4)nn12)CCCC3 | > 100 µg/mL |
| O=c1c2c3c(sc2nc2sc(-c4cc(Cl)cc(Cl)c4)nn12)CCCC3 | > 100 µg/mL |
| Nn1c(SCC(=O)c2ccc(Cl)cc2)nc2sc3c(c2c1=O)CCCC3 | > 100 µg/mL |

# input for lookup
Dear colleague, please send me the reported MIC for CN[C@@H]1[C@H](O[C@H]2[C@H](O[C@H]3[C@H](O)[C@@H](O)[C@H](N=C(N)N)[C@@H](O)[C@@H]3N=C(N)N)O[C@@H](C)[C@]2(O)C=O)O[C@@H](CO)[C@H](O)[C@H]1O (stereo in doubt) when you can. < 6.25 µg/mL
